Readings of Mean relative activity for the listed molecules
# System: K562 CRISPRi cells
# assay: Constant region variant library pooled growth screen, K562
# Type: cell-based, human
# condition: sgRNA constant region variant; activity relative to unmodified constant region cr995; mean CRISPRi activity

Provide measured Mean relative activity value, entry: cr750 (nucleic acid, listed as DNA, chemistry not fully specified) guide: GTTTAAGAGCTAAGCTGGAAACAGCATAGCAAGGTTAAATAAGGCTAGTCCGTTATCAATTTGAAAAAATGGCACCGAGTCGGTGCT 0.01125

Provide measured Mean relative activity value, entry: cr384 (nucleic acid, listed as DNA, chemistry not fully specified) guide: GTTTAAGAGCTAAGCTGGAAACAGCATAGCAAGTTTAAATAAATCTAGTATGTTATCAACTTGAAAAAGTGGCACCGAGTCGGTGCT 0.01438

Provide measured Mean relative activity value, entry: cr462 (nucleic acid, listed as DNA, chemistry not fully specified) guide: GTTTAAGAGCTAAGCTGGAAACAGCATAGCAAAATTAAATAAGGCTAGTCCGTTATCAACTTGAAAAAGTGGCACCGAGTCGGTGCT 0.01488

Provide measured Mean relative activity value, entry: cr332 (nucleic acid, listed as DNA, chemistry not fully specified) guide: GTTTAAGAGCTAAGCTGGAAACAGCATAGCAATATTAAATAAGGCTAGTCCGTTATCAACTTGAAAAAGTGGCACCGAGTCGGTGCT 0.01145
